molecular target: IL-12 (human, p35/p40 heterodimer) (Homo sapiens, UniProt P29459;P29460 SEQ:57-253,SEQ:23-328); assay: filter; tRNA
Sequence (P29459 23-219, chain 1 of 2): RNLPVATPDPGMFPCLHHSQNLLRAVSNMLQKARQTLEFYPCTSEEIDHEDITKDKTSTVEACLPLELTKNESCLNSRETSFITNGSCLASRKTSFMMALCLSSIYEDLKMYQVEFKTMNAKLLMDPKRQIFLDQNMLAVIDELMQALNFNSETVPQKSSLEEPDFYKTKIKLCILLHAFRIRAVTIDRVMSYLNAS
Sequence (P29460 23-328, chain 2 of 2): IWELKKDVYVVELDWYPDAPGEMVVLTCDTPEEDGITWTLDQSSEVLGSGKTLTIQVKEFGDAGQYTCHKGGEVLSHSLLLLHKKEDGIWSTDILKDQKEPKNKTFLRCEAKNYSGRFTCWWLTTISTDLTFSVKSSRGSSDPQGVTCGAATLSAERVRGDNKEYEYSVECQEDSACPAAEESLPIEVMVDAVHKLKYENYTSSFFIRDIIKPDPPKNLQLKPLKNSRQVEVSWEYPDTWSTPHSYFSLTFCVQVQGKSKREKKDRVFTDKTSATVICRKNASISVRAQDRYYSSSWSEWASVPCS
test.readout: pKd
Quick note: pKd values are minus log10 of concentrations in mol/L.

{"binder": "AMX86-B11 (ssRNA, 2'-F C,U) RNA: GGGAAAAGCGAAUCAUACACAAGAGUAUCAUUCGGCUGGUGGGAGAAAUCUCUGUAGAUAUAGAGCUCCGCCAGAGACCAACCGAGAA", "measured.number": 5.23}
{"binder": "AMX86-A7 (ssRNA, 2'-F C,U) RNA: GGGAAAAGCGAAUCAUACACAAGAUCUCUUUGGCCGACGCAACAAUGCUCUUUUCCGACCUUGCGCUCCGCCAGAGACCAACCGAGAA", "measured.number": 6.18}
{"binder": "AMX91-H8 (ssRNA, 2'-F C,U) RNA: GGGAAAAGCGAAUCAUACACAAGAACGCAUAGUCGGAUUUACCGAUCAUUCUGUGCCUUCGUGACGCUCCGCCAGAGACCAACCGAGAA", "measured.number": 6.61}
{"binder": "AMX86-A11 (ssRNA, 2'-F C,U) RNA: GGGAAAAGCGAAUCAUACACAAGAACGGCUAGGCAUCAAUGGCCAGCAAAAAUAGUCGUGUAAUGCUCCGCCAGAGACCAACCGAGAA", "measured.number": 6.74}

Note to self: pKd recorded for AMX86-H9 (ssRNA, 2'-F C,U) RNA: GGGAAAAGCGAAUCAUACACAAGAUGGUUCCCACGUGAAAGUGGCUAGCGAGUACCCCACUUAUGCUCCGCCAGAGACCAACCAAGGG was 6.48

GET /value?item= AMX86-C5 (ssRNA, 2'-F C,U) RNA: GGGAAAAGCGAAUCAUACACAAGAGUUUUAUGUGGGUCCCGAUGAUUAACUUUAUUGGCGCAUUGCUCCGCCAGAGACCAACCGAGAA &field=pKd returns 6.40

The reported pKd of the binder AMX86-F12 (ssRNA, 2'-F C,U) RNA: GGGAAAAGCGAAUCAUACACAAGAGUGUUGAAUGAGCGCUGGUGGACAGAUCUUUGGUUACAGAGCUCCGCCAGAGACCAACCGAGAA was 5.54
